target: TXK (human) (UniProt P42681); assay: radiometric filter-binding kinase assay, Kinase HotSpot; details: compound 0.5 µM; ATP 10 µM
Sequence (P42681 whole entry, looked up): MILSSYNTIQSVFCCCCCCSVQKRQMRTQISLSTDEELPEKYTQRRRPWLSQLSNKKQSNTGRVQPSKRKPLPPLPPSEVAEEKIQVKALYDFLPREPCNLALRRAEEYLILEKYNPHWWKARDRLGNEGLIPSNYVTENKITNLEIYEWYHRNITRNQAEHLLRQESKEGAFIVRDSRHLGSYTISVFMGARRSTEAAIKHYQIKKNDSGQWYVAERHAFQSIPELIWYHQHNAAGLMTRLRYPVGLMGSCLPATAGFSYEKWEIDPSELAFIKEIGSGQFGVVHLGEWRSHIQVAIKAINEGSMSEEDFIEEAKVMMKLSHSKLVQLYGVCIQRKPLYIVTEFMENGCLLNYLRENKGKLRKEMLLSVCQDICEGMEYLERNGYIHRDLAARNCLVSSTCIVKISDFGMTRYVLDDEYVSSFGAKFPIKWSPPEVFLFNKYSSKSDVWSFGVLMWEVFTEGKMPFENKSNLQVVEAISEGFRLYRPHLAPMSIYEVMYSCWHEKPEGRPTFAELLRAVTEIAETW
metric: residual activity (%)

{"query.smiles": "COc1ccc2c(c1)/C(=C/c1cnc[nH]1)C(O)=N2", "reading.unit": "%", "recorded.number": 93.5}
{"query.smiles": "CN(C)S(=O)(=O)c1ccc2c(c1)/C(=C/c1cc3c([nH]1)CCCC3)C(=O)N2", "reading.unit": "%", "recorded.number": 96}
{"query.smiles": "COc1cc2ncnc(Nc3ccc(Oc4ccccc4)cc3)c2cc1OC", "reading.unit": "%", "recorded.number": 78}
{"query.smiles": "CO[C@@H]1[C@H](N(C)C(=O)c2ccccc2)C[C@H]2O[C@]1(C)n1c3ccccc3c3c4c(c5c6ccccc6n2c5c31)C(=O)NC4", "reading.unit": "%", "recorded.number": 71.7}
{"query.smiles": "O=C1Nc2ccc(Br)cc2/C1=C\\c1cc2c([nH]1)CCCC2", "reading.unit": "%", "recorded.number": 97.3}
{"query.smiles": "O=C(c1cc2cc(O)ccc2[nH]1)c1cc2cc(O)ccc2[nH]1", "reading.unit": "%", "recorded.number": 74.9}
{"query.smiles": "CN(C)CCCn1cc(C2=C(c3c[nH]c4ccccc34)C(=O)NC2=O)c2ccccc21", "reading.unit": "%", "recorded.number": 107}
{"query.smiles": "CS(=O)(=O)CCNCc1ccc(-c2ccc3ncnc(Nc4ccc(OCc5cccc(F)c5)c(Cl)c4)c3c2)o1", "reading.unit": "%", "recorded.number": 110}
{"query.smiles": "COc1ccc(C(=O)Nc2sc3c(c2C(N)=O)CCCC3)cc1OC", "reading.unit": "%", "recorded.number": 96.2}
{"query.smiles": "Fc1ccc(-c2nc3n(c2-c2ccncc2)CCS3)cc1", "reading.unit": "%", "recorded.number": 98.9}
{"query.smiles": "Cc1nc(-c2ccccc2)c(-c2ccncc2)o1", "reading.unit": "%", "recorded.number": 99.4}
{"query.smiles": "Cc1cncc2cccc(S(=O)(=O)N3CCCN(C(=O)CN)C[C@H]3C)c12", "reading.unit": "%", "recorded.number": 103}

----------
As shown below, each of these compounds has a reported residual activity value.
target: MARK4 (human); assay: radiometric filter-binding kinase assay, Kinase HotSpot; conditions: compound 0.5 µM; ATP 10 µM

{"query.smiles": "COc1cc(Nc2c(C#N)cnc3cc(OCCCN4CCN(C)CC4)c(OC)cc23)c(Cl)cc1Cl", "system": "MARK4 (human)", "residual activity [%]": 60.6}
{"query.smiles": "CCCCc1c(-c2ccc(OC)cc2)[nH]c2nccnc12", "system": "MARK4 (human)", "residual activity [%]": 88.3}
{"query.smiles": "Cn1c2ccccc2c2c3c(c4c5ccccc5n(CCC#N)c4c21)CNC3=O", "system": "MARK4 (human)", "residual activity [%]": 10.8}
{"query.smiles": "Cc1nc(-c2ccccc2)c(-c2ccncc2)o1", "system": "MARK4 (human)", "residual activity [%]": 103}

----------
As shown below, each of these molecules has a reported residual activity value.
biological target: UniProtKB P12931; experiment: radiometric filter-binding kinase assay, Kinase HotSpot; details: compound 0.5 µM; ATP 10 µM
Sequence (P12931 whole entry, looked up): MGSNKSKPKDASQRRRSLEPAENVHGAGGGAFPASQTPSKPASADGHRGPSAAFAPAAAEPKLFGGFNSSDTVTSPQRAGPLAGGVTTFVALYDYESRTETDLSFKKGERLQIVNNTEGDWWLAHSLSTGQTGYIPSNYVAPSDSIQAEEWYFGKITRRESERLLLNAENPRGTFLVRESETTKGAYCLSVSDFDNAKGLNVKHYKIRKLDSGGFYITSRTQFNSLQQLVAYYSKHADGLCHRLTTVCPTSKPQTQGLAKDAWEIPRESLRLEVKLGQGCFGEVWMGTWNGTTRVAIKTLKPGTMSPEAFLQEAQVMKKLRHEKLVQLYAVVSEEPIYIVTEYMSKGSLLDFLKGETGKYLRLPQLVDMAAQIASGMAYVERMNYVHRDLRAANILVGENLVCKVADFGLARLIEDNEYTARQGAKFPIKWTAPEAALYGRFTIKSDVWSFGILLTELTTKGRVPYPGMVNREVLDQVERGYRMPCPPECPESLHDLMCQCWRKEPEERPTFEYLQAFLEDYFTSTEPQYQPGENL

{"query.smiles": "N#Cc1c[nH]c2c[nH]/c(=N\\Cc3cccnc3)cc2/c1=N\\c1ccc(F)c(Cl)c1", "residual activity, %": 92.6}
{"query.smiles": "COc1ccc2c(c1)/C(=C/c1cnc[nH]1)C(O)=N2", "residual activity, %": 92.1}
{"query.smiles": "O=C1NC(=O)c2c1c1c3ccccc3[nH]c1n1cncc21", "residual activity, %": 88.4}

----------
target: FYN (human) (UniProt P06241); assay: radiometric filter-binding kinase assay, Kinase HotSpot; conditions: compound 0.5 µM; ATP 10 µM
Sequence (P06241 whole entry, looked up): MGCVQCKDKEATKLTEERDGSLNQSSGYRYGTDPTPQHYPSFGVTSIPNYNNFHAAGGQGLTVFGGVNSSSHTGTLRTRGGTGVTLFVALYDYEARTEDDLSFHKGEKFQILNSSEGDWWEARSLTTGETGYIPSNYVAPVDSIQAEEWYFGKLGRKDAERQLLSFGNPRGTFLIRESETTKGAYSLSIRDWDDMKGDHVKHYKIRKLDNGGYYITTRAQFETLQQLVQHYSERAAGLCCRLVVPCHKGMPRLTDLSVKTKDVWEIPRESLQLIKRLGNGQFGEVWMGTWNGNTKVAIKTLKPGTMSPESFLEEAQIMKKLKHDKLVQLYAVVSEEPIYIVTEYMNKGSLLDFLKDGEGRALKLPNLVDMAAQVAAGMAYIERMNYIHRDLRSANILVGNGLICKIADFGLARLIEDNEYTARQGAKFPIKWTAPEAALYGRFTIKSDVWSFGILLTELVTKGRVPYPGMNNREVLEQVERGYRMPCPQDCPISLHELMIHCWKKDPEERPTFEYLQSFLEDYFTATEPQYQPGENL

{"query.smiles": "O=C1C(Cl)=C(N2C(=O)CCC2=O)C(=O)c2ccccc21", "system": "FYN (human) (UniProt P06241)", "residual activity": "111%"}
{"query.smiles": "Ic1cccc(CSc2nnc(-c3ccncc3)o2)c1", "system": "FYN (human) (UniProt P06241)", "residual activity": "102%"}
{"query.smiles": "COc1ccc(C(=O)Nc2sc3c(c2C(N)=O)CCCC3)cc1OC", "system": "FYN (human) (UniProt P06241)", "residual activity": "93.9%"}
{"query.smiles": "COc1ccc(S(=O)(=O)N(CCO)c2ccccc2CN(C)C/C=C/c2ccc(Cl)cc2)cc1", "system": "FYN (human) (UniProt P06241)", "residual activity": "103%"}
{"query.smiles": "CN(C)CCCn1cc(C2=C(c3c[nH]c4ccccc34)C(=O)NC2=O)c2ccccc21", "system": "FYN (human) (UniProt P06241)", "residual activity": "88.3%"}
{"query.smiles": "CO[C@@H]1[C@H](N(C)C(=O)c2ccccc2)C[C@H]2O[C@]1(C)n1c3ccccc3c3c4c(c5c6ccccc6n2c5c31)C(=O)NC4", "system": "FYN (human) (UniProt P06241)", "residual activity": "34%"}
{"query.smiles": "N#Cc1c[nH]c2c[nH]/c(=N\\Cc3cccnc3)cc2/c1=N\\c1ccc(F)c(Cl)c1", "system": "FYN (human) (UniProt P06241)", "residual activity": "103%"}
{"query.smiles": "Cc1cccc(-c2nc(C(C)(C)C)[nH]c2-c2ccc3c(c2)OCO3)n1", "system": "FYN (human) (UniProt P06241)", "residual activity": "108%"}
{"query.smiles": "COc1ccc2c(c1)c(C1=C(c3c[nH]c4ccccc34)C(=O)NC1=O)cn2CCCN(C)C", "system": "FYN (human) (UniProt P06241)", "residual activity": "110%"}
{"query.smiles": "COc1cc2ncnc(Nc3ccc(OCc4ccccc4)cc3)c2cc1OC", "system": "FYN (human) (UniProt P06241)", "residual activity": "86.3%"}
{"query.smiles": "Cc1nc(-c2ccccc2)c(-c2ccncc2)o1", "system": "FYN (human) (UniProt P06241)", "residual activity": "99.8%"}
{"query.smiles": "Cn1c2ccccc2c2c3c(c4c5ccccc5n(CCC#N)c4c21)CNC3=O", "system": "FYN (human) (UniProt P06241)", "residual activity": "90.6%"}
{"query.smiles": "COc1ccc(Cl)cc1NC(=O)Nc1cc(C)nc2ccccc12", "system": "FYN (human) (UniProt P06241)", "residual activity": "100%"}
{"query.smiles": "CC(C)(C)c1cc(C=C(C#N)C#N)cc(Br)c1O", "system": "FYN (human) (UniProt P06241)", "residual activity": "67.2%"}
{"query.smiles": "O=C(c1cc2cc(O)ccc2[nH]1)c1cc2cc(O)ccc2[nH]1", "system": "FYN (human) (UniProt P06241)", "residual activity": "28.8%"}
{"query.smiles": "COc1cc2ncnc(Nc3ccc(Oc4ccccc4)cc3)c2cc1OC", "system": "FYN (human) (UniProt P06241)", "residual activity": "26.9%"}
{"query.smiles": "CS(=O)(=O)CCNCc1ccc(-c2ccc3ncnc(Nc4ccc(OCc5cccc(F)c5)c(Cl)c4)c3c2)o1", "system": "FYN (human) (UniProt P06241)", "residual activity": "99.4%"}
{"query.smiles": "CN(C)c1ccc(/C=C2\\C(=O)Nc3ccccc32)cc1", "system": "FYN (human) (UniProt P06241)", "residual activity": "104%"}
{"query.smiles": "Fc1ccc(-c2nc3n(c2-c2ccncc2)CCS3)cc1", "system": "FYN (human) (UniProt P06241)", "residual activity": "108%"}
{"query.smiles": "O=C1Nc2ccc(Br)cc2/C1=C\\c1cc2c([nH]1)CCCC2", "system": "FYN (human) (UniProt P06241)", "residual activity": "87.5%"}
{"query.smiles": "Cc1cncc2cccc(S(=O)(=O)N3CCCN(C(=O)CN)C[C@H]3C)c12", "system": "FYN (human) (UniProt P06241)", "residual activity": "94.2%"}
{"query.smiles": "COc1cc(Nc2c(C#N)cnc3cc(OCCCN4CCN(C)CC4)c(OC)cc23)c(Cl)cc1Cl", "system": "FYN (human) (UniProt P06241)", "residual activity": "29.4%"}

----------
molecular target: NEK6 (human); assay: radiometric filter-binding kinase assay, Kinase HotSpot; conditions: compound 0.5 µM; ATP 10 µM
metric: residual activity (%)

{"query.smiles": "O=C1C(Cl)=C(N2C(=O)CCC2=O)C(=O)c2ccccc21", "system": "NEK6 (human)", "recorded.number": 104}
{"query.smiles": "Cc1nc(-c2ccccc2)c(-c2ccncc2)o1", "system": "NEK6 (human)", "recorded.number": 94.4}
{"query.smiles": "Cn1c2ccccc2c2c3c(c4c5ccccc5n(CCC#N)c4c21)CNC3=O", "system": "NEK6 (human)", "recorded.number": 103}
{"query.smiles": "O=C1Nc2ccc(Br)cc2/C1=C\\c1cc2c([nH]1)CCCC2", "system": "NEK6 (human)", "recorded.number": 103}
{"query.smiles": "Cc1cncc2cccc(S(=O)(=O)N3CCCN(C(=O)CN)C[C@H]3C)c12", "system": "NEK6 (human)", "recorded.number": 93.3}
{"query.smiles": "O=C1c2ccccc2-c2nc3nnnn3nc21", "system": "NEK6 (human)", "recorded.number": 96.3}
{"query.smiles": "COc1ccc(S(=O)(=O)N(CCO)c2ccccc2CN(C)C/C=C/c2ccc(Cl)cc2)cc1", "system": "NEK6 (human)", "recorded.number": 103}
{"query.smiles": "Fc1ccc(-c2nc3n(c2-c2ccncc2)CCS3)cc1", "system": "NEK6 (human)", "recorded.number": 98.7}
{"query.smiles": "COc1cc(Nc2c(C#N)cnc3cc(OCCCN4CCN(C)CC4)c(OC)cc23)c(Cl)cc1Cl", "system": "NEK6 (human)", "recorded.number": 85.3}
{"query.smiles": "N#Cc1c[nH]c2c[nH]/c(=N\\Cc3cccnc3)cc2/c1=N\\c1ccc(F)c(Cl)c1", "system": "NEK6 (human)", "recorded.number": 104}
{"query.smiles": "Cc1cccc(-c2nc(C(C)(C)C)[nH]c2-c2ccc3c(c2)OCO3)n1", "system": "NEK6 (human)", "recorded.number": 109}
{"query.smiles": "CS(=O)(=O)CCNCc1ccc(-c2ccc3ncnc(Nc4ccc(OCc5cccc(F)c5)c(Cl)c4)c3c2)o1", "system": "NEK6 (human)", "recorded.number": 93.7}
{"query.smiles": "CCCCc1c(-c2ccc(OC)cc2)[nH]c2nccnc12", "system": "NEK6 (human)", "recorded.number": 111}
{"query.smiles": "COc1cc2ncnc(Nc3ccc(Oc4ccccc4)cc3)c2cc1OC", "system": "NEK6 (human)", "recorded.number": 93}
{"query.smiles": "COc1cc2ncnc(Nc3ccc(OCc4ccccc4)cc3)c2cc1OC", "system": "NEK6 (human)", "recorded.number": 97.6}
{"query.smiles": "COc1ccc2c(c1)c(C1=C(c3c[nH]c4ccccc34)C(=O)NC1=O)cn2CCCN(C)C", "system": "NEK6 (human)", "recorded.number": 101}
